The origin of these recorded values is PubChem BioAssay AID1259415.

Measured activity change, negative = inhibition accompanies every entry in the list below.
- EXPERIMENT DESCRIPTION: qHTS Assay for inhibitors of the human cytomegalovirus (HCMV); further: on the % scale 0 is the no-effect control and ±100 the full control effect
- TEST CONTEXT: HFF cells, HCMV-luciferase reporter, 72 h; at 57.5 µM; hits give low values
Out of some 410,000 compounds screened, about 18,000 (4.4%) were called active. Inconclusive results (about 7%) are left out. This excerpt belongs to a sample that is enriched for actives.

| MOLECULE | activity change, negative = inhibition |
| --- | --- |
| Cc1oc2ccc(O)c(CN3CCCCC3)c2c1C(=O)Nc1cccc(C(F)(F)F)c1 | -76.5% (active) |
| COc1cc(OC)cc(-c2c(C#Cc3ccsc3)c3cc(-c4ccc(SC)cc4)ccc3n2C)c1 | -6.32% (inactive) |
| COc1ccccc1NC(=O)COc1ccc(C(=O)OCC(=O)N(C(C)C)C(C)C)cc1OC | -9.98% (inactive) |
| CCN1CCN(Cc2c(O)ccc3oc(C)c(C(=O)Nc4ccc(C)cc4C)c23)CC1 | -4.07% (inactive) |

The reported value for `O=C(Nc1cccc([N+](=O)[O-])c1)N1CCc2ccccc2C1` in terms of activity change, negative = inhibition is -65.7% (active)

Recorded activity change, negative = inhibition (molecule COc1ccc(C(=O)COC(=O)C(O)c2ccccc2)c(OC)c1 (configuration not stated) ): -26% (inactive)

Sure, the documented activity change, negative = inhibition for CCOc1ccc(S(=O)(=O)N2CCCCC2)cc1NC(=O)CN1CCCC1c1cccs1 (configuration not stated) is -90% (active)

molecule `CCOCCc1nn2c(=O)cc(COC(=O)CNC(=O)c3ccc(C(C)(C)C)cc3)nc2s1` , activity change, negative = inhibition observed: -3.83% (inactive)

Short answer for `CCc1cccc(NC(=O)c2cc(-c3ccccc3)n[nH]2)c1` : activity change, negative = inhibition was 46.1% (inactive)

// activity change, negative = inhibition lookup, molecule = COc1cc2c(cc1OC)C(C(=O)NCc1ccco1)C1c3ccccc3CCN1C2=O (configuration not stated) , result: 3.83% (inactive)

activity change, negative = inhibition in this record for `COc1cc(C(=O)N(C)Cc2cccc(OC)c2OC)ccc1OCC(=O)Nc1cccc(C(F)(F)F)c1` : -86.1% (active)
